System: EKVX NSCLC
Assay: NCI tumour cell line growth inhibition, 48 h
PARAMETER MEASURED: TGI

These recorded examples may help you get a feel for the data.
COc1cc(CCCOC2OC(COC3OCC(O)C(O)C3O)C(O)C(O)C2O)cc2cc(-c3ccc4c(c3)OCO4)oc12 (stereo not given)	> 175 µM
Cc1cn(C2CC(OC(c3ccccc3)(c3ccccc3)c3ccccc3)C(COC(c3ccccc3)(c3ccccc3)c3ccccc3)O2)c(=O)[nH]c1=O (stereo not given)	> 100 µM

Request: // map `COc1ccc2c(c1)[C@@]13CCN4CC5=CCO[C@H]6CC(=O)N2[C@H]1[C@H]6[C@H]5C[C@H]43` to recorded TGI (system: EKVX NSCLC)
Result: > 100 µM

Request: And for `O=C(O)c1cc2ccccc2c(S(=O)(=O)O)c1O` ?
Result: > 100 µM

Request: And for `CCOC(=O)c1c(NC(=S)Nc2ccc(C)cc2)sc2c1CCN(C)C2` ?
Result: > 100 µM

----------
System: RPMI-8226 leukemia
Test: NCI tumour cell line growth inhibition, 48 h
PARAMETER MEASURED: TGI

C[C@H]1CCC/C=C/[C@@H]2C[C@H](N)C[C@H]2[C@H](O)/C=C/C(=O)O1	> 100 µM
COC(=O)c1sc2ncc3c(c2c1N)CC(C)CC3 (configuration not stated)	> 100 µM
CCn1c(-c2nonc2N)nc2ccc(F)cc21	> 25 µM
CC1=NC(C)(C)N(O)C1(C)C	> 100 µM
Cc1ccc2c(c1)C(=O)/C(=C\c1ccc(Cl)cc1)CCS2(=O)=O	4.81 µM
CN(C)C(=S)/N=c1\ss/c(=N\S(=O)(=O)c2ccccc2)n1-c1ccccc1	> 100 µM

# next compound below
Request: Could you share which TGI value was measured for `COc1ccc(/C=C/C(=O)c2sc(-n3nc(-c4ccccc4)cc3-c3ccccc3)nc2C)cc1OC` ?
Result: 70 µM

----------
Test system: NCI-H23 lung
Test: NCI tumour cell line growth inhibition, 48 h
# Lookup of reported TGI keyed by entry

Cc1noc(C)c1-c1ccc2[nH]c(=O)n3c2c1OC[C@@H]3c1ccccn1	> 100 µM
CN1c2ccccc2C(=O)NC12CCN(CC1COc3ccccc3O1)CC2 (stereo not given)	> 100 µM
CCOC(=O)C(NC(=O)c1ccc(N=NN(C)C)cc1)C(C)C (stereo not given)	> 100 µM
COc1ccc(-c2cc(-c3cc(Cl)ccc3Cl)nc3nc(=S)[nH]c(N)c23)cc1	48.4 µM
Oc1c2c(c(O)c3ccccc13)=N[C@@H](c1ccccc1)[C@H](c1ccccc1)N=2	> 100 µM
CC(O)(C(=O)N(O)c1ccc(Cl)cc1)c1ccc(Cl)cc1 (stereo not given)	59.7 µM

Request: Could you share which TGI value was measured for `Cc1ccc(C(=O)c2[nH]c(Nc3cc(C)ccn3)c(C(=S)Nc3ccccc3)c2N)cc1` ?
Result: > 100 µM

Request: And for `NS(=O)(=O)c1ccc(NC(=O)c2cccc3c(=O)c4ccccc4[nH]c23)cc1` ?
Result: > 100 µM

Request: And for CCCCCC(C(O)C#N)C(O)(C(F)(F)F)C(F)(F)F (stereo not given) ?
Result: > 10 µM

Request: And for C[C@@H]1C(=O)CC2(O)[C@@]13C[C@@H](OC(=O)[C@@H]3O)[C@@H](C)[C@@]21COC1=O (stereo not given in full) ?
Result: > 100 µM
